This collection of values is drawn from paper PMC11439058.

# METHOD_SUMMARY: Stability in DMEM cell culture medium
RECORDED_ENDPOINT: half-life

query: Form field: reported half-life of `[H]/N=C1/NC(=O)C(=Cc2ccc(O)cc2)S1`
result: > 100 h

###

# METHOD_SUMMARY: HepG2 cytotoxicity, Neutral Red Uptake
# Type: cell-based, Human
# CONDITION_PARAMETERS: human, HepG2 cells; Doxorubicin 0.6 µM, 24 h; read-out: Percentage of viable HepG2 cells
RECORDED_ENDPOINT: viability at 24 h, 0.6 µM (%)
Express your answer in %, writing the number without its unit.

query: Form field: reported viability at 24 h, 0.6 µM of COc1cccc2c1C(=O)c1c(O)c3c(c(O)c1C2=O)C[C@@](O)(C(=O)CO)C[C@@H]3O[C@H]1C[C@H](N)[C@H](O)[C@H](C)O1 [Doxorubicin]
result: 73.4

###

# METHOD_SUMMARY: in vitro
# CONDITION_PARAMETERS: human, plasma, pH 7.4, t 1/2 (half-life) in plasma
RECORDED_ENDPOINT: half-life

query: Form field: reported half-life of C[C@H](CCC(=O)Oc1ccc(/C=C2\SC(=N)NC2=O)cc1)[C@H]1CCC2C3C(C[C@H](O)[C@@]21C)[C@@]1(C)CC[C@@H](O)CC1C[C@H]3O (stereo partly shown)
result: ~18 h

###

# METHOD_SUMMARY: HepG2 cytotoxicity, Neutral Red Uptake
# Format: cell-based, Human
# CONDITION_PARAMETERS: human, HepG2 cells; Doxorubicin 6.0 µM, 24 h; read-out: Percentage of viable HepG2 cells
RECORDED_ENDPOINT: viability at 24 h, 6 µM (%)
Express your answer in %, writing the number without its unit.

query: Form field: reported viability at 24 h, 6 µM of COc1cccc2c1C(=O)c1c(O)c3c(c(O)c1C2=O)C[C@@](O)(C(=O)CO)C[C@@H]3O[C@H]1C[C@H](N)[C@H](O)[C@H](C)O1 [Doxorubicin]
result: 18.9

###

# METHOD_SUMMARY: HepG2 cytotoxicity, Neutral Red Uptake
# Assay type: cell-based, Human
# CONDITION_PARAMETERS: human, HepG2 cells; Doxorubicin 12.0 µM, 24 h; read-out: Percentage of viable HepG2 cells
RECORDED_ENDPOINT: viability at 24 h, 12 µM (%)
Express your answer in %, writing the number without its unit.

query: Form field: reported viability at 24 h, 12 µM of `COc1cccc2c1C(=O)c1c(O)c3c(c(O)c1C2=O)C[C@@](O)(C(=O)CO)C[C@@H]3O[C@H]1C[C@H](N)[C@H](O)[C@H](C)O1`
result: 5.8

###

# METHOD_SUMMARY: Extraction recovery from denatured microsomes (matrix effect)
# CONDITION_PARAMETERS: human, Recovery (% Rec, Time 0'), denatured human liver microsomes
# reported recovery at 0 min; entries follow

INSERT INTO assay_data (compound, recorded_value) VALUES
  ('C[C@H](CCC(=O)Oc1ccc(/C=C2\SC(=N)NC2=O)cc1)[C@H]1CCC2C3C(C[C@H](O)[C@@]21C)[C@@]1(C)CC[C@@H](O)CC1C[C@H]3O (some centres unmarked)', '< 70%');

query: Form field: reported recovery at 0 min of `[H]/N=C1/NC(=O)C(=Cc2ccc(O)cc2)S1`
result: 92.3%

###

# METHOD_SUMMARY: HepG2 cytotoxicity, Neutral Red Uptake
# Format: cell-based, Human
# CONDITION_PARAMETERS: human; HepG2, 24 h, Neutral Red Uptake; read-out: IC50 (cytotoxic effect)
RECORDED_ENDPOINT: IC50 at 24 h (µM)
Express your answer in µM, writing the number without its unit.

query: Form field: reported IC50 at 24 h of [H]/N=C1/NC(=O)C(=Cc2ccc(O)cc2)S1 [Mirin]
result: 50
